- measurement-target: UniProtKB Q16539
property-measured: IC50 (nM)

Consider the worked cases shown below.
molecule="COc1ccc(-c2nnc(CNC(=O)c3cc(C(=O)c4c(F)cc(F)cc4F)c[nH]3)s2)cn1 [Example 17]" property_measured=IC50 meas_value=78
molecule="O=C(NCc1nnc(-c2ccc(F)cc2)s1)c1cc(C(=O)c2c(F)cc(F)cc2F)c[nH]1 [Example 8]" property_measured=IC50 meas_value=50
molecule="O=C(NCc1nnc(-c2ccccn2)s1)c1cc(Cc2c(F)cc(F)cc2F)c[nH]1 [Example 44]" property_measured=IC50 meas_value=555

(a) O=C(NCc1nnc(-c2ccccc2)s1)c1cc(C(=O)c2c(F)cc(F)cc2F)c[nH]1 [Example 7]
(b) O=C(NCc1nnc(-c2cn[nH]n2)s1)c1cc(C(=O)c2c(F)cc(F)cc2F)c[nH]1 [Example 34]
Asked: For a and b , which recorded IC50 is lower? Kindly state the label of the option you pick.
Given back: a

(I) O=C(NCc1nnc(-c2cccc(=O)[nH]2)s1)c1cc(C(=O)c2c(F)cc(F)cc2F)c[nH]1 [Example 37]
(II) O=C(NCc1nnc(-c2ccco2)s1)c1cc(C(=O)c2c(F)cc(F)cc2F)c[nH]1 [Example 15]
Asked: For I and II , which recorded IC50 is lower? Kindly state the label of the option you pick.
Given back: II

(a) O=C(NCc1nnc(-c2n[nH]c3ccccc23)s1)c1cc(C(=O)c2c(F)cc(F)cc2F)c[nH]1 [Example 28]
(b) O=C(NCc1nnc(C2CCC2)s1)c1cc(C(=O)c2c(F)cc(F)cc2F)c[nH]1 [Example 22]
Asked: Endpoint returns the identifier whose IC50 is numerically larger, either a or b . Kindly state the label of the option you pick.
Given back: b

* * *

- Test system: hWB
- experiment-description: IC50 hWB (TNF-α release assay)
- Type: cell-based
- assay-setup: Homo sapiens
property-measured: IC50 (nM)

compound="O=C(NCc1nnc(-c2ccc[nH]c2=O)s1)c1cc(Cc2c(F)cc(F)cc2F)c[nH]1 [Example 43]" measurement_target=hWB property_measured=IC50 meas_value=1880

(P) O=C(NCc1nnc(-c2ccn[nH]2)s1)c1cc(Cc2c(F)cc(F)cc2F)c[nH]1 [Example 45]
(Q) O=C(NCc1nnc(C2CCCC2)s1)c1cc(C(=O)c2c(F)cc(F)cc2F)c[nH]1 [Example 6]
Asked: For P and Q , which recorded IC50 is lower? Kindly state the label of the option you pick.
Given back: P

* * *

- measurement-target: p38-α (Homo sapiens, UniProt Q16539)
- Sequence (Q16539 whole entry): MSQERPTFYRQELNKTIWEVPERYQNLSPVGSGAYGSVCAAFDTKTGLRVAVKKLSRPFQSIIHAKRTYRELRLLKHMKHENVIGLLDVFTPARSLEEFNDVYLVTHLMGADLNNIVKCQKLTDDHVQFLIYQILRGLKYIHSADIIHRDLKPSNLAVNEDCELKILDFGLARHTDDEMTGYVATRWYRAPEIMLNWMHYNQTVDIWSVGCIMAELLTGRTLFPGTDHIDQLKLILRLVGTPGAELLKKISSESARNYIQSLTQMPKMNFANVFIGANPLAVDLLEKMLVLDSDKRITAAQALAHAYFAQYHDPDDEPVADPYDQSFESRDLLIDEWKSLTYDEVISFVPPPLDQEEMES
property-measured: IC50 (nM)

Consider the worked cases shown below.
compound_string=CC(C)(C)c1nnc(CNC(=O)c2cc(C(=O)c3c(F)cc(F)cc3F)c[nH]2)s1 quantity_unit=nM meas_value=608
compound_string=O=C(NCc1nnc(-c2[nH]nc3c2CCC3)s1)c1cc(C(=O)c2c(F)cc(F)cc2F)c[nH]1 quantity_unit=nM meas_value=36
compound_string=O=C(NCc1nnc(-c2c(F)cccc2F)s1)c1cc(C(=O)c2c(F)cc(F)cc2F)c[nH]1 quantity_unit=nM meas_value=276
compound_string=O=C(NCc1nnc(-c2ccc[nH]c2=O)s1)c1cc(C(=O)c2c(F)cc(F)cc2F)c[nH]1 quantity_unit=nM meas_value=37.5
compound_string=Cc1nnc(CNC(=O)c2cc(C(=O)c3c(F)cc(F)cc3F)c[nH]2)s1 quantity_unit=nM meas_value=167
compound_string=O=C(NCc1nnc(-c2ccn[nH]2)s1)c1cc(Cc2c(F)cc(F)cc2F)c[nH]1 quantity_unit=nM meas_value=354

(1) O=C(NCc1nnc(-c2ccccn2)s1)c1cc(C(=O)c2c(F)cc(F)cc2F)c[nH]1
(2) CC1(c2nnc(CNC(=O)c3cc(C(=O)c4c(F)cc(F)cc4F)c[nH]3)s2)CC1
Asked: For 1 and 2 , which recorded IC50 is lower? Kindly state the label of the option you pick.
Given back: 1
